Would you kindly list MIC for each of these compounds?
System: Candida albicans (DSM 10697)
Assay: MIC assay, pathogenic yeast C. albicans
Type: cell-based
Details: DSM10697, 35 °C, 24–48 h
Numbers only, in µM.

Worked cases, answers included:
- compound: "CCCCOc1ccc(/C=C2\\CN(CC)C/C(=C\\c3ccc(OCCCC)cc3OCCCC)C2=O)c(OCCCC)c1"
  endpoint: "MIC"
  readout-value: 250
- compound: "CCCCOc1ccc(/C=C2\\CN(Cc3ccccc3)C/C(=C\\c3ccc(OCCCC)cc3OCCCC)C2=O)c(OCCCC)c1"
  endpoint: "MIC"
  readout-value: 62.5
- compound: "CCCCOc1ccc(/C=C2\\CN(Cc3ccccc3)C/C(=C\\c3ccc(OCCCC)c(OCCCC)c3)C2=O)cc1OCCCC"
  endpoint: "MIC"
  readout-value: 250
- compound: "OC(Cn1cncn1)(Cn1cncn1)c1ccc(F)cc1F [Fluconazole, reference compound]"
  endpoint: "MIC"
  readout-value: 6.25

Ask: Can you look up MIC on Candida albicans (DSM 10697) for CCCCOc1ccc(/C=C2\CN(CC)C/C(=C\c3ccc(OCCCC)c(OCCCC)c3OCCCC)C2=O)c(OCCCC)c1OCCCC ?
Reply: 125

====

Assay: in vitro
Details: human
endpoint: CC50 at 48 h

Ask: Entry CCCCOc1ccc(/C=C2\CN(C3CC3)C/C(=C\c3ccc(OCCCC)cc3OCCCC)C2=O)c(OCCCC)c1 [4h] : reported CC50 at 48 h = ?
Reply: > 1 mM

====

Could you please report measured MIC for the items listed next?
Test system: Candida tropicalis (DSM 9419)
Answers are plain numbers, in µM.

Before answering, review these 4 worked examples.
- compound: "OC(Cn1cncn1)(Cn1cncn1)c1ccc(F)cc1F [Fluconazole, reference compound]"
  MIC / µM: 1000
- compound: "CCCCOc1ccc(/C=C2\\CN(CC)C/C(=C\\c3ccc(OCCCC)c(OCCCC)c3OCCCC)C2=O)c(OCCCC)c1OCCCC"
  MIC / µM: 250
- compound: "CCCCOc1ccc(/C=C2\\CN(Cc3ccccc3)C/C(=C\\c3ccc(OCCCC)c(OCCCC)c3)C2=O)cc1OCCCC"
  MIC / µM: 125
- compound: "CCCCOc1ccc(/C=C2\\CN(CC)C/C(=C\\c3ccc(OCCCC)cc3OCCCC)C2=O)c(OCCCC)c1"
  MIC / µM: 250

Ask: # get_value(readout= MIC, system= Candida tropicalis (DSM 9419)) for CCCCOc1ccc(/C=C2\CN(Cc3ccccc3)C/C(=C\c3ccc(OCCCC)cc3OCCCC)C2=O)c(OCCCC)c1
Reply: 125

====

Experiment: in vitro
Conditions: human, Caco-2
endpoint: CC50 at 48 h (µM)
Answers are plain numbers, in µM.

Example results:
- compound: "CCN1C/C(=C\\c2ccc(C(F)(F)F)cc2)C(=O)/C(=C/c2ccc(C(F)(F)F)cc2)C1 [1f]"
  readout-value: 47
- compound: "CCN1C/C(=C\\c2ccc(OC)cc2)C(=O)/C(=C/c2ccc(OC)cc2)C1 [1a]"
  readout-value: 314
- compound: "CCN1C/C(=C\\c2ccc(C)cc2)C(=O)/C(=C/c2ccc(C)cc2)C1 [1b]"
  readout-value: 86.2
- compound: "CCN1C/C(=C\\c2ccc(Cl)cc2)C(=O)/C(=C/c2ccc(Cl)cc2)C1 [1e]"
  readout-value: 98.6

Next, consider the following compound.
Ask: Field request: CC50 at 48 h | item: CCCCOc1ccc(/C=C2\CN(Cc3ccccc3)C/C(=C\c3ccc(OCCCC)cc3OCCCC)C2=O)c(OCCCC)c1 [3h]
Reply: 629
